System: promoter region of the gene encoding human apoAI
Assay method text: Activity to enhance the production of human apoAI: apoAI promoter-luciferase reporter assay in HepG2 cells
Assay type: cell-based
Run parameters: minimum effective dose: concentration that intensified luciferase activity twice compared to control, 24 hours incubation, 0 to 10 μg/mL, read-out: MED

{"Smiles str": "COc1cccc(-c2nnc(-c3ccoc3)o2)c1", "EC (2-fold luciferase activity), µM": 2.8}
{"Smiles str": "c1ccc(Nc2nc(-c3ccccc3)ns2)cc1", "EC (2-fold luciferase activity), µM": 0.93}
{"Smiles str": "Cc1ccc(-n2nnc(-c3ccccc3)n2)cc1", "EC (2-fold luciferase activity), µM": 0.2}
{"Smiles str": "Cc1cccc(-c2nnc(-c3cccc(C)c3)o2)c1", "EC (2-fold luciferase activity), µM": 0.17}
{"Smiles str": "Cc1ccc(-n2nnc(-c3ccc(Cl)cc3)n2)cc1", "EC (2-fold luciferase activity), µM": 0.33}
